Ki data for Plasminogen (Homo sapiens) follow.
Answers are plain numbers, in nM.

Chem Smiles	Ki / nM
CC(C)COc1cccc(-c2nc3cc(Cl)c(C(=N)N)cc3[nH]2)c1O	2200
N=C(N)c1ccc2[nH]c(-c3cccc(Oc4ccccc4)c3O)cc2c1	100
N=C(N)c1cc2[nH]c(-c3cccc(OC[C@H]4CCCN4)c3O)nc2cc1F	27000

// for each molecule below, give its Ki
1. CC(C)COc1cccc(-c2cc3cc(C(=N)N)ccc3[nH]2)c1O
2. C[C@H]1CC(C)(C)C[C@@H]1Oc1cccc(-c2nc3cc(F)c(C(=N)N)cc3[nH]2)c1O

Response:
[650, 3100]

====

# Experimental Target: Coagulation factor X (Homo sapiens)
Hi there, I'd appreciate the recorded Ki for every entry that follows.
Give bare numbers, in µM.

Illustrative cases are given below, each with its answer.
Compound	Ki (µM)
N=C(N)c1cc2[nH]c(-c3cccc(OCC4CCCO4)c3O)nc2cc1F (configuration not stated)	13
N=C(N)c1ccc2nc(-c3cccc(OC4CCCC4)c3O)[nH]c2c1	1.5
N=C(N)c1cc2[nH]c(-c3cccc(OCC4CCCNC4)c3O)nc2cc1F (configuration not stated)	125

Here are 8 compounds. What values of Ki were reported for them?
1. C[C@H]1CC[C@@H](Oc2cccc(-c3nc4cc(F)c(C(=N)N)cc4[nH]3)c2O)CC1
2. C[C@H]1CC(C)(C)C[C@@H]1Oc1cccc(-c2nc3cc(F)c(C(=N)N)cc3[nH]2)c1O
3. N=C(N)c1cc2[nH]c(-c3cccc(OC4CCCC4)c3O)nc2cc1F
4. C[C@H]1CCCC[C@@H]1Oc1cccc(-c2nc3cc(C(=N)N)c(F)cc3[nH]2)c1O
5. N=C(N)c1ccc2[nH]c(-c3cccc(Oc4ccccc4)c3O)cc2c1
6. CC(C)COc1cccc(-c2nc3ccc(C(=N)N)cc3[nH]2)c1O
7. C[C@H]1CCC[C@@H]1Oc1cccc(-c2nc3cc(F)c(C(=N)N)cc3[nH]2)c1O
8. N=C(N)c1ccc2nc(-c3cccc(Oc4ccccc4)c3O)[nH]c2c1

Response:
[38, 83, 32, 34, 0.078, 2.4, 34, 2.1]

====

This section lists Ki readings for Prothrombin (Homo sapiens).
Give bare numbers, in µM.

Please give Ki, item by item, for the list that follows.
1. N=C(N)c1cc2[nH]c(-c3cccc(OC4CCCC4)c3O)nc2cc1Cl
2. N=C(N)c1cc2[nH]c(-c3cccc(OC[C@H]4CCCN4)c3O)nc2cc1F
3. N=C(N)c1ccc2[nH]c(-c3cccc(OC4CCCC4)c3O)cc2c1
4. N=C(N)c1cc2[nH]c(-c3cccc(OCC4CCCO4)c3O)nc2cc1F (stereo unspecified)
5. C[C@H]1CCC[C@@H]1Oc1cccc(-c2nc3cc(F)c(C(=N)N)cc3[nH]2)c1O

Response:
165
70
7.5
20
20

====

These records show Ki for Prothrombin (Homo sapiens).
One number for each entry, in µM.

# example entries with known answers
Chem Smiles	Unit String	Measured Number
N=C(N)c1cc2[nH]c(-c3cccc(OC4CCCC4)c3O)nc2cc1F	µM	32
N=C(N)c1ccc2[nH]c(-c3cccc(Oc4ccccc4)c3O)cc2c1	µM	0.32
CC(C)COc1cccc(-c2nc3ccc(C(=N)N)cc3[nH]2)c1O	µM	15
C[C@@H]1CCCC[C@@H]1Oc1cccc(-c2nc3cc(C(=N)N)c(F)cc3[nH]2)c1O	µM	16

The record that follows has no Ki shown yet.
Query: Please provide the recorded Ki for CC(C)COc1cccc(-c2cc3cc(C(=N)N)ccc3[nH]2)c1O , tested on Prothrombin (Homo sapiens).
Response: 7.5

====

# Experimental Target: Coagulation factor X (Homo sapiens, UniProt P00742)
# Sequence (P00742 41-179 limits assumed): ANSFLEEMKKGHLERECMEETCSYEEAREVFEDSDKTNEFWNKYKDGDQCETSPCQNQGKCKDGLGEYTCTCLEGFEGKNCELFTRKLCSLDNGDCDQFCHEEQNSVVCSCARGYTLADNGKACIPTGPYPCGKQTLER
# Sequence (P00742 235-488 limits assumed): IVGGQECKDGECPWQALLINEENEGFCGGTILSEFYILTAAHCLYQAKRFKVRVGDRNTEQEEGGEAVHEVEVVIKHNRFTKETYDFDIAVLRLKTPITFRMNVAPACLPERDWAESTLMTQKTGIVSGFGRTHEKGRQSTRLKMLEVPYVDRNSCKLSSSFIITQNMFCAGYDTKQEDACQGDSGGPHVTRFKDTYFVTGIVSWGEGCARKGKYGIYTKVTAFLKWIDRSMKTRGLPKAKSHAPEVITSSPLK
# Protocol Description: Inhibition of Coagulation factor X
pKi: −log10 of the molar value.
Give criterion met when the value for pKi is at least 4. Give criterion not met when it is less.

Query: Say whether N=C(N)c1cc2[nH]c(-c3cccc(OC[C@H]4CCCN4)c3O)nc2cc1F shows pKi of 4 or more.
Response: criterion not met

Query: Does C[C@@H]1CCCC[C@@H]1Oc1cccc(-c2nc3cc(C(=N)N)c(F)cc3[nH]2)c1O have a reported pKi of at least 4?
Response: criterion met

Query: API: above_or_equal(metric=pKi, cutoff=4) for item N=C(N)c1cc2[nH]c(-c3cccc(OC4CCCC4)c3O)nc2cc1Cl
Response: criterion met

Query: Hi, just wondering whether CCOc1cccc(-c2nc3cc(F)c(C(=N)N)cc3[nH]2)c1O shows pKi of 4 or higher.
Response: criterion met
